Catalogue of pKi values
- Measurement Target: calpain-I isolated from human erythrocytes (Homo sapiens, UniProt P07384)
- Construct: calpain-I—isolated from human erythrocytes
- Sequence (P07384 1-714): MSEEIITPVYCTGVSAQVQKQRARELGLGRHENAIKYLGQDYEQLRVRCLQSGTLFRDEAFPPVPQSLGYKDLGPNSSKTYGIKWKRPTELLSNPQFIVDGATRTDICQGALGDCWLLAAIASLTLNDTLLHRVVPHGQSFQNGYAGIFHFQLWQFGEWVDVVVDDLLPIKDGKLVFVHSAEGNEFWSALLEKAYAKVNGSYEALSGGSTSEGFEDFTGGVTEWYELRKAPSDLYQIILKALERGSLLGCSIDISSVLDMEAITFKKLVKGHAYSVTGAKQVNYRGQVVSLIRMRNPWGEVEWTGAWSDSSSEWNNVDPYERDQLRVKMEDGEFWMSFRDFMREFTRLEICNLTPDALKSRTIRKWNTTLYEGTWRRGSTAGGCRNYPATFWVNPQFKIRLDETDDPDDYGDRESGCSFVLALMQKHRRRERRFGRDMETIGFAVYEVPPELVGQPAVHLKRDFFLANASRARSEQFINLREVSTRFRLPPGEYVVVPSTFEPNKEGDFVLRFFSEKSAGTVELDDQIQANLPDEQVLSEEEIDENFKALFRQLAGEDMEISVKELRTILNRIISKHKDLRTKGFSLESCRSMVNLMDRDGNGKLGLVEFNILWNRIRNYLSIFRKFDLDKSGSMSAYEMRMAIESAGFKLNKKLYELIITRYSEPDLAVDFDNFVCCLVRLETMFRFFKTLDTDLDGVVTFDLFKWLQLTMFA
- Sequence (P04632 1-268 partner): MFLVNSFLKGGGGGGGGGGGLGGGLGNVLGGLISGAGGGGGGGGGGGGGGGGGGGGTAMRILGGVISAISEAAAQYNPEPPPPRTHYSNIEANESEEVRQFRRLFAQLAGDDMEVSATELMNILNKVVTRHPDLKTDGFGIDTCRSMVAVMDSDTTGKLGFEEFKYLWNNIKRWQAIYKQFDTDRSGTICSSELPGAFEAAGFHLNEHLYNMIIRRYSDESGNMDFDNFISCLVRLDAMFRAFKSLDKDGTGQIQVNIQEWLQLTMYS
- Experiment: Calpain I enzyme inhibition, kinetic fluorescence assay
- Test Parameters: apparent Ki from IC50 by Cheng-Prussoff; pH 7.3, room temperature
pKi: −log10 of the molar value.

Worked set:
NC(=O)C(=O)C(Cc1ccccc1)NC(=O)c1cccnc1-n1ccc(-c2cccc(C(F)(F)F)c2)n1 (centres unmarked): ≥ 7.40
NC(=O)C1(C(Cc2ccc(F)cc2)NC(=O)c2cccnc2-n2ccc(-c3ccc(Cl)cc3Cl)n2)OCCO1 (centres unmarked): < 5.00
NC(=O)C1(C(Cc2ccccc2)NC(=O)c2cccnc2-n2ccc(-c3cccc(C(F)(F)F)c3)n2)OCCO1 (centres unmarked): < 5.00
NC(=O)C(=O)C(Cc1ccccc1)NC(=O)c1cccnc1-n1ccc(-c2ccc(F)cc2)n1 (centres unmarked): 7.00 to 7.40

--- query ---
Query: Entry NC(=O)C(=O)C(Cc1ccc(F)cc1)NC(=O)c1cccnc1-n1ccc(-c2ccc(Cl)cc2Cl)n1 (centres unmarked) has what pKi?
Response: 7.00 to 7.40
